Measured values drawn from BigSolDB 2.1 for this set.

Settings: in n-butanol, 313.15 K
METRIC: solubility (mole fraction)

IN: Any idea what its solubility (mole fraction) is? The molecule is `O=C(O)c1ccc(C(=O)O)o1`
OUT: 0.00266

----------
Conditions: in acetic acid, 333.15 K
METRIC: solubility (mole fraction)
Answers are plain numbers.

IN: Please report the recorded solubility (mole fraction) for `O=C(O)c1ccc(C(=O)O)o1` .
OUT: 0.000478

----------
Conditions: in isobutanol, 328.15 K
METRIC: solubility (mole fraction)

IN: For the molecule shown here, `O=C(O)c1ccc(C(=O)O)o1` , give the reported solubility (mole fraction).
OUT: 0.0027

----------
Settings: in acetonitrile, 328.15 K
METRIC: solubility (mole fraction)

IN: // query solubility (mole fraction) value for entry `O=C(O)c1ccc(C(=O)O)o1`
OUT: 0.000136
